Quick reference: FACS-Seq fitted mean (log10) of the listed items.
B1: library; a variant is named by its letters at N, in order (parent)
chain: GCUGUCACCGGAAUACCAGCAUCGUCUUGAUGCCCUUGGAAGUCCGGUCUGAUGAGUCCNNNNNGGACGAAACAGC

variants of: B1; assay: FACS-Seq fitted mean relative fluorescence mCherry/BFP with ligand (log10 relative fluorescence); ligand concentration (+) FACS-Seq: 1 mM; higher = higher reporter protein expression; conditions: HEK293T, ligand present: yes
No unit in the answer, only the number.

Use the examples below as a reference point.
1. UGGGA	0.178
2. CGCCC	0.725
3. AACUU	0.981

Prompt: Quick check: FACS-Seq fitted mean (log10) of "CAAAA" ?
Response: 0.67

Prompt: Quick check: FACS-Seq fitted mean (log10) of "GAAUC" ?
Response: 0.683

Prompt: Quick check: FACS-Seq fitted mean (log10) of "CUACU" ?
Response: 0.924

Prompt: Quick check: FACS-Seq fitted mean (log10) of "GCAAC" ?
Response: 0.739

Prompt: Quick check: FACS-Seq fitted mean (log10) of "UACAA" ?
Response: 0.553

The origin of these recorded values is the supplement of paper PMC6757056.
